# Tested on: Respiratory syncytial virus
# TEST_DESCRIPTION: Cytotoxicity was evaluated against Respiratory syncytial virus at 200-400 uM; IA=inactive
# Type: functional, organism-based
Activity calls are given as the source filed them. The calls are words filed in the database; no cut-off is given here.

{"columns": ["MOLECULE", "Cytotoxicity"],
 "data": [
  ["O=c1[nH]c(=O)n(C2S[C@@H](CO)[C@H](O)[C@H]2O)cc1Br (stereo partly drawn)", "inactive"],
  ["Nc1ccn(C2S[C@@H](COCc3ccccc3)[C@H](OCc3ccccc3)[C@H]2OCc2ccccc2)c(=O)n1 (stereo partly drawn)", "inactive"],
  ["CC(=O)OC1S[C@@H](COCc2ccccc2)[C@H](OCc2ccccc2)[C@H]1OCc1ccccc1 (stereo partly drawn)", "inactive"],
  ["C[C@@]1(n2ccc(N)nc2=O)CS[C@H](CO)O1", "inactive"],
  ["O=c1[nH]c(=O)n(C2S[C@@H](CO)[C@H](O)[C@H]2O)cc1F (stereo partly drawn)", "inactive"],
  ["O=c1nc(-n2cncn2)ccn1C1S[C@@H](COCc2ccccc2)[C@H](OCc2ccccc2)[C@H]1OCc1ccccc1 (stereo partly drawn)", "inactive"],
  ["O=c1[nH]c(=O)n(C2S[C@@H](CO)[C@H](O)[C@H]2O)cc1Cl (stereo partly drawn)", "inactive"],
  ["Nc1ncnc2c1ncn2C1S[C@@H](COCc2ccccc2)[C@H](OCc2ccccc2)[C@H]1OCc1ccccc1 (stereo partly drawn)", "inactive"]
]}
